- Test system: Lipid bilayer
- Experiment Notes: Binding affinity to zwitterionic tethered bilayer lipid membranes assessed as increase in membrane capacitance changes at 0.1 to 100 uM by electrochemical impedance spectroscopic analysis
Calls of active or inactive are those of the source. No cut-off for these calls is given here.
Answer with one of the outcomes active, inactive

Study these solved cases before continuing.
Smiles Repr | Category
COC(=O)[C@H](CCCCN)NC(=O)c1cccc(-c2cccc(NC(=O)[C@H](Cc3c[nH]c4ccccc34)NC(=O)[C@@H](N)Cc3ccccc3)c2)c1 | active
COC(=O)[C@H](CCCNC(=N)N)NC(=O)c1cccc(-c2cccc(NC(=O)[C@H](Cc3c[nH]c4ccccc34)NC(=O)[C@@H](N)Cc3ccccc3)c2)c1 | inactive
NCCCC[C@H](NC(=O)c1cccc(-c2cccc(NC(=O)[C@H](Cc3c[nH]c4ccccc34)NC(=O)[C@@H](N)Cc3ccccc3)c2)c1)C(=O)NCCN | active

Shifting focus to the molecule that follows.
Query: Tell me the assay call for N=C(N)NCCNC(=O)c1cccc(-c2cccc(NC(=O)[C@H](Cc3c[nH]c4ccccc34)NC(=O)[C@@H](N)Cc3ccccc3)c2)c1 please.
Response: active
